Where do these numbers come from? They come from ChEMBL document CHEMBL3632600.

tested on: Leishmania major; experiment: Antileishmanial activity against promastigote stage of Leishmania major Friedlin clone V1 assessed as parasite survival after 72 hrs by luciferase reporter gene assay; assay type: functional; settings: Friedlin clone V1, 72 h, read-out: LD50 (the source's name)
Below, each entry is listed with its recorded LC50.

Solved cases (5 shown):
compound=CCOC(=O)c1ccc(NC2CCCCC2)c(NCc2ccc(F)c(C#N)c2)c1 target_desc="Leishmania major" measured="> 10 µM"
compound=CCOC(=O)c1ccc(NC2CCCCC2)c(NCc2ccc([N+](=O)[O-])cc2)c1 target_desc="Leishmania major" measured="> 10 µM"
compound=CCOC(=O)c1ccc(NC2CCCCC2)c(NCc2ccccc2)c1 target_desc="Leishmania major" measured="3.34 µM"
compound=CCOC(=O)c1ccc(NC2CCCCC2)c(NCc2cc(F)cc(Br)c2)c1 target_desc="Leishmania major" measured="> 10 µM"
compound=CCOC(=O)c1ccc(NC2CCCCC2)c(NCc2ccccc2[N+](=O)[O-])c1 target_desc="Leishmania major" measured="> 10 µM"

Please indicate LC50 recorded for CCOC(=O)c1ccc(NC2CCOCC2)c(N)c1
> 10 µM

Please indicate LC50 recorded for CCOC(=O)c1ccc(NC23CC4CC(CC(C4)C2)C3)c(NCc2ccccc2)c1
> 10 µM

Please indicate LC50 recorded for CCOC(=O)c1ccc(NC2CCCCC2)c(NCc2ccc(C#N)cc2)c1
> 10 µM

Please indicate LC50 recorded for CCOC(=O)c1ccc(N[C@H]2CC[C@H](N)CC2)c(N)c1
> 10 µM

Please indicate LC50 recorded for O=C(O)c1ccc(NC2CCCCC2)c(NCc2ccccc2)c1
> 10 µM

Please indicate LC50 recorded for CCOC(=O)c1ccc(NC2CCCCC2)c(NC(=O)OC)c1
> 10 µM

Please indicate LC50 recorded for CCOC(=O)c1cnc(NC2CCCCC2)c(N)c1
> 10 µM

Please indicate LC50 recorded for CCOC(=O)c1ccc(NC2CCCCC2)c(NCc2cccc(F)c2)c1
> 10 µM
